pIC50: −log10 of the molar value.
Here we list compounds with their recorded pIC50 when tested on Human platelet cyclic AMP phosphodiesterase (Homo sapiens).
Sequence (Q14432 whole entry): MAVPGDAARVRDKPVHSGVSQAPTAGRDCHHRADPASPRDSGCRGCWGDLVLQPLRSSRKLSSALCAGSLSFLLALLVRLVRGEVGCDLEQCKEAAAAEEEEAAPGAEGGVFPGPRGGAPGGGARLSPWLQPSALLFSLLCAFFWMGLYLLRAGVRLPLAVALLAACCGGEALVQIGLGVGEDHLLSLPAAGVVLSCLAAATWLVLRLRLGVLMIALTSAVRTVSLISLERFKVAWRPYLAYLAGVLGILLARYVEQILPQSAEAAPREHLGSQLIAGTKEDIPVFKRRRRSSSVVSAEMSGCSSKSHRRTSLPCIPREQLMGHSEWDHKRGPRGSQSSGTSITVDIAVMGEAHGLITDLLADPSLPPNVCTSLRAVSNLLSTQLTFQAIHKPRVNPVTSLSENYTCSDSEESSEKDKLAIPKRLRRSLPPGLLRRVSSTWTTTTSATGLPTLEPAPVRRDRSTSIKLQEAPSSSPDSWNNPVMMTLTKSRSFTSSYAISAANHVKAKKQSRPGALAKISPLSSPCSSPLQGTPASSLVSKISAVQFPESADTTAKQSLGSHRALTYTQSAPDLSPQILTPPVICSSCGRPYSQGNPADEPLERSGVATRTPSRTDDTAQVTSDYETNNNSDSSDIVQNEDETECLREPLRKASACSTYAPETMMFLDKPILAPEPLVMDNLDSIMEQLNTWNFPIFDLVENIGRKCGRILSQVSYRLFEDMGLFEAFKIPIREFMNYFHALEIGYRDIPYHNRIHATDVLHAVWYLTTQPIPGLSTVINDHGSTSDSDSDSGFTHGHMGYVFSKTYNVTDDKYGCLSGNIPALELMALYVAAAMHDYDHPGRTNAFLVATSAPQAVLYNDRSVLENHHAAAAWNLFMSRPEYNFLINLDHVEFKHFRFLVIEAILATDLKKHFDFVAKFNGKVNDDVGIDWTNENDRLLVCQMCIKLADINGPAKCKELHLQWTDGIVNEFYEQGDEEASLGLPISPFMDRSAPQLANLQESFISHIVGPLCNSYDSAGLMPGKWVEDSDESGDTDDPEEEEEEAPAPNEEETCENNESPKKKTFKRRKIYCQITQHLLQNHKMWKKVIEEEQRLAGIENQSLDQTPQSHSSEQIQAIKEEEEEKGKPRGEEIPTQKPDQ

MOL_SMILES: O=C(O)CN(C(=O)CCCOc1ccc2c(c1)CN1CC(=O)NC1=N2)C1CCCCC1
pIC50: 8.30
--
MOL_SMILES: NC(=O)CN(C(=O)CCCOc1ccc2c(c1)CN1CC(=O)NC1=N2)C1CCCCC1
pIC50: 7.96
--
MOL_SMILES: COC(=O)CN(C(=O)CCCOc1ccc2c(c1)CN1CC(=O)NC1=N2)C1CCCCC1
pIC50: 8.70
